measurement protocol: soluble on expression in E. coli; label from the status in PepcDB or PDB records
measurement kind: soluble on expression in E. coli

sequence code	measurement kind	obs value
MTRSENFILDFTHIYIDENIEQTENIVRIDCSDILGTDLYCTKEGEAEIQKRIENFSINGVHFIDSGNYHYITKIMTDKINKKFSLVLYDHHTDMQKPMVEGMTSCGDWAAQVIEQNENLEQLILVGASEADIQQINVKNQSKLITFSAEELRNNSGREKLDLIETDVPFYISIDKDILDKHYIETNWSQGHMSLGMLEHLLKFFLKDKKIIGVDICGECQIGLPFPEYIEAEEKNAETNIELYEYIGRYMGK	soluble on expression in E. coli	not soluble
IHDDPVEQRDADVAMEKSHRARNERKKNKNHTPSEHPAAAAMHEEKKKVSIEDLVAAVVIEDDPQPEPDVVPTPADDDVMDIVSAALDRAYEEDPDEPSGSDYLPLEEKPQTYAEAVEEFERSPRRKRKTRGNSVSDVPPRKADFEKPEPQPEPEVVVEKVSSRGRRRAVRRTVVEATPEVVAPTETVESSRGRRRAVRKKMAPQPVQTEAVVEDKHEVSAPSQGGRGRRRASRRAPRR	soluble on expression in E. coli	not soluble

The origin of these recorded values is the DeepSol protein solubility set.
